Activity reference
# Test system: MDA-MB-231
# PROTOCOL_TEXT: Induction of methuosis in human MDA-MB-231 cells assessed as increase in vacuole formation at 1 uM after 24 hrs by phase contrast microscopic analysis relative to control
# Type: functional
Record the result as number plus unit.

MOLECULE | REPORTED_VALUE
Cc1ccc(C(=O)Nc2cccc(Cl)c2)cc1Nc1cc(-c2cccnc2)nc2[nH]ccc12 | 19.49%
Cc1ccc(NC(=O)c2cccc(C(F)(F)F)c2)cc1Nc1cc(-c2ccccc2)nc2[nH]ccc12 | 0%
Cc1cc(NC(=O)c2ccc(C)c(Nc3cc(-c4cccnc4)nc4[nH]ccc34)c2)n(C)n1 | 2.48%

(Q) I am curious: what Activity value has been reported for Cc1ccc(NC(=O)c2cccc(C(F)(F)F)c2)cc1Nc1cc(-c2ccsc2)nc2[nH]ccc12 ?
(A) 0%

(Q) I am curious: what Activity value has been reported for Cc1ccc(C(=O)Nc2cc(C(F)(F)F)cc(C(F)(F)F)c2)cc1Nc1cc(-c2cccnc2)nc2[nH]ccc12 ?
(A) 0%

(Q) I am curious: what Activity value has been reported for Cc1ccc(NC(=O)c2cccc(C(F)(F)F)c2)cc1Nc1cc(-c2cccnc2)nc2[nH]ccc12 ?
(A) 99.75%

(Q) I am curious: what Activity value has been reported for O=C(Nc1cccc(Nc2cc(-c3cccnc3)nc3[nH]ccc23)c1)c1cccc(C(F)(F)F)c1 ?
(A) 96.61%

(Q) I am curious: what Activity value has been reported for Cc1ccc(C(=O)Nc2cccc(OC(F)(F)F)c2)cc1Nc1cc(-c2cccnc2)nc2[nH]ccc12 ?
(A) 38.57%

(Q) I am curious: what Activity value has been reported for Cc1ccc(NC(=O)c2cccc(C(F)(F)F)c2)cc1Nc1cc(-c2ccncc2)nc2[nH]ccc12 ?
(A) 1.46%

(Q) I am curious: what Activity value has been reported for COc1cccc(NC(=O)c2ccc(C)c(Nc3cc(-c4cccnc4)nc4[nH]ccc34)c2)c1 ?
(A) 76.86%

(Q) I am curious: what Activity value has been reported for Cc1ccc(C(=O)Nc2cccc(C(F)(F)F)c2)cc1Nc1cc(-c2ccncc2)nc2[nH]ccc12 ?
(A) 0%

====

# System: MDA-MB-231
# PROTOCOL_TEXT: Induction of methuosis in human MDA-MB-231 cells assessed as increase in vacuole formation at 1 uM after 24 hrs by phase contrast microscopic analysis relative to control
# Format: functional
ASSAY_READOUT: Activity (%)
Response body: numeric value in %, unit text excluded.

Worked set:
MOLECULE | ASSAY_SYSTEM | Activity (%)
Cc1ccc(C(=O)Nc2cccc(C(F)(F)F)c2)cc1Nc1cc(-c2cccnc2)nc2c1ccn2C | MDA-MB-231 | 3.63
Cc1ccc(C(=O)N2CCOCC2)cc1Nc1cc(-c2cccnc2)nc2[nH]ccc12 | MDA-MB-231 | 0
Cc1ccc(NC(=O)c2cccc(C(F)(F)F)c2)cc1Nc1cc(-c2cccc(Cl)c2)nc2[nH]ccc12 | MDA-MB-231 | 0.03
Cc1ccc(NC(=O)c2cccc(C(F)(F)F)c2)cc1Nc1cc(-c2ccoc2)nc2[nH]ccc12 | MDA-MB-231 | 0.24

Lab note: next molecule to report on.
(Q) I am curious: what Activity value has been reported for Cc1ccc(NC(=O)c2cccc(C(F)(F)F)c2)cc1Nc1cc(-c2cccnc2)nc2c1ccn2C ?
(A) 16.08

====

# PROTOCOL_TEXT: Volume of distribution in Balb/c nude mouse at 1 mg/kg, iv
# Assay type: ADME, organism-based
# EXPERIMENTAL_CONDITIONS: in vivo
ASSAY_READOUT: Vd (L/kg)
Response body: numeric value in L/kg, unit text excluded.

(Q) I am curious: what Vd value has been reported for Cc1ccc(NC(=O)c2cccc(C(F)(F)F)c2)cc1Nc1cc(-c2cccnc2)nc2[nH]ccc12 ?
(A) 15.5

====

# Test system: MCF-10A
# PROTOCOL_TEXT: Cytotoxicity against human MCF10A cells assessed as reduction in cell viability after 48 hrs by MTS assay
# Assay type: cell-based
ASSAY_READOUT: IC50

(Q) Request - read-out IC50 | tested on MCF-10A | molecule Cc1ccc(NC(=O)c2cccc(C(F)(F)F)c2)cc1Nc1cc(-c2cccnc2)nc2[nH]ccc12
(A) > 10 µM

====

# PROTOCOL_TEXT: Half life in Balb/c nude mouse at 1 mg/kg, iv
# Format: ADME, organism-based
# EXPERIMENTAL_CONDITIONS: in vivo
ASSAY_READOUT: half-life (h)
Response body: numeric value in h, unit text excluded.

(Q) I am curious: what half-life value has been reported for Cc1ccc(NC(=O)c2cccc(C(F)(F)F)c2)cc1Nc1cc(-c2cccnc2)nc2[nH]ccc12 ?
(A) 8.74

====

# Tested on: SK-MEL-30
# PROTOCOL_TEXT: Antiproliferative activity against human SK-MEL-30 cells after 48 hrs by MTS assay
# Assay type: functional, cell-based
# EXPERIMENTAL_CONDITIONS: SK-MEL-30, 48 h
ASSAY_READOUT: pIC50
pIC50 field: float, defined as -log10 of concentration (mol/L).

(Q) I am curious: what pIC50 value has been reported for Cc1ccc(NC(=O)c2cccc(C(F)(F)F)c2)cc1Nc1cc(-c2cccnc2)nc2[nH]ccc12 ?
(A) 5.78

====

# Test system: MDA-MB-231
# PROTOCOL_TEXT: Antiproliferative activity against human MDA-MB-231 cells after 48 hrs by MTS assay
# Assay type: functional, cell-based
# EXPERIMENTAL_CONDITIONS: MDA-MB-231, 48 h
ASSAY_READOUT: IC50 (nM)
Response body: numeric value in nM, unit text excluded.

(Q) I am curious: what IC50 value has been reported for Cc1ccc(NC(=O)c2cccc(C(F)(F)F)c2)cc1Nc1cc(-c2cccnc2)nc2[nH]ccc12 ?
(A) 1570

====

# Test system: MDA-MB-435S
# PROTOCOL_TEXT: Antiproliferative activity against human MDA-MB-435S cells after 48 hrs by MTS assay
# Type: functional, cell-based
ASSAY_READOUT: IC50 (nM)
Response body: numeric value in nM, unit text excluded.

(Q) I am curious: what IC50 value has been reported for Cc1ccc(NC(=O)c2cccc(C(F)(F)F)c2)cc1Nc1cc(-c2cccnc2)nc2[nH]ccc12 ?
(A) 2270

====

# System: MDA-MB-231
# PROTOCOL_TEXT: Induction of methuosis in human MDA-MB-231 cells assessed as increase in vacuole formation at 1 uM after 24 hrs by phase contrast microscopic analysis relative to control
# Type: functional
ASSAY_READOUT: Activity (%)
Response body: numeric value in %, unit text excluded.

Worked set:
MOLECULE | REPORTED_VALUE
Cc1ccc(NC(=O)c2cccc(C(F)(F)F)c2)cc1Nc1cc(-c2cccc(N)c2)nc2[nH]ccc12 | 0.27
Cc1ccc(C(=O)Nc2cccc(C(F)(F)F)c2)cc1Nc1cc(-c2cccnc2)nc2[nH]ccc12 | 70.29
Cc1cccc(NC(=O)c2ccc(C)c(Nc3cc(-c4cccnc4)nc4[nH]ccc34)c2)c1 | 11.24
O=C(Nc1cccc(C(F)(F)F)c1)c1cccc(Nc2cc(-c3cccnc3)nc3[nH]ccc23)c1 | 3.78
Cc1ccc(NC(=S)Nc2cccc(C(F)(F)F)c2)cc1Nc1cc(-c2cccnc2)nc2[nH]ccc12 | 1.26

(Q) I am curious: what Activity value has been reported for Cc1ccc(C(=O)Nc2cc(CN3CCN(C)CC3)cc(C(F)(F)F)c2)cc1Nc1cc(-c2cccnc2)nc2[nH]ccc12 ?
(A) 0.62

Data provenance is ChEMBL document CHEMBL4118249.
